In this section, each of the molecules is paired with its reported z-score.
experiment: PSAC antagonists in infected red cells, primary screen, cell-based, P. falciparum Indochina, OD700, 2 h (AID 1155);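 also: lysis reports solute entry through the parasite surface anion channel PSAC; channel blockers reduce lysis of infected cells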; conditions: P. falciparum Indochina infected erythrocytes, osmotic lysis OD700; higher = more signal, called active from +8 up or from −8 down
Answer using only a numeral; do not append any unit.

Consider the reported z-score for these molecules:
molecule	readout_number
C=C[C@H](OC)[C@@H](OC(=O)Nc1ccc(SC)cc1)c1ccc(O)c(F)c1	8.06
C=CCN(C(=O)C1N(c2ccc(CCO)cc2)C(=O)C2C(C(=O)O)C3C=CC21O3)C(C)(C)C (stereo not given)	-1.14
CC1CC/C=C\[C@H]2OC34C=CCN(Cn5nnc6ccccc65)C(=O)[C@H]3N(C(C)CO)C(=O)[C@@H]4C2C(=O)O1 (stereo not given in full)	0.974
COc1cc(CO)cc(I)c1O[C@H]1C=C(C(=O)NCCO)C[C@@H](NCCc2c[nH]c3ccccc23)[C@@H]1O	0.928

Give me measured z-score, please, for this molecule: C=C(C)[C@@H]1CC=C(C(O)C2C=CC3C(=O)NC(=O)C3N2Nc2ccccn2)CC1 (stereo not given in full)
0.613

Give me measured z-score, please, for this molecule: "COC(=O)[C@@]1(Cc2ccc(OC)cc2)[C@H]2c3cc(C(=O)N(C)C)n(CCc4ccc(OC)c(Br)c4)c3C[C@H]2CN1C(=O)c1ccccc1"
1.39

Give me measured z-score, please, for this molecule: "CO[C@H]1COC(=O)CC=C[C@@H](C)COC(=O)[C@@H](C)NC(=O)CC=C[C@@H]1C"
-0.599

Give me measured z-score, please, for this molecule: "CO[C@@H]1COC(=O)[C@H](COCc2ccccc2)NC(=O)CC=C[C@@H](C)[C@H](OC)COC(=O)[C@H](COCc2ccccc2)NC(=O)CC=C[C@H]1C"
-0.562

* * *

test system: wheat germ agglutinin (Triticum aestivum), Alexa647-labelled; assay: wheat germ agglutinin binders on compound microarrays, profiling panel, artefact control for SMM control-protein annotation, biochemical, small-molecule microarray, 635/667 nm fluorescence (AID 1140); settings: WGA-A647 binding, 635 nm fluorescence, higher = more signal;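 also: score merges 667 nm feature emission with signal to noise over triplicate slides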
Categorized via composite z-score: bottom end = under -0.5, midrange = from -0.5 up to 0.03, top end = 0.03 and over

Check out these entries, answers already filled in.
molecule	class_assignment
COc1ccc([Si](C)(C)[C@H]2[C@H](CCO)O[C@@]3(C(=O)N(Cc4ccc(N5CCCCC5=O)cc4)c4ccccc43)[C@@H]2C)cc1	top end
[N-]=[N+]=NCc1ccccc1[C@H]1OC(c2ccc(OCCCO)cc2)=N[C@@]1(Cc1ccccc1N=[N+]=[N-])C(=O)NCc1ccccc1	top end
C=C(CCCC)/C(=C/C[C@H](OC(=O)c1ccncc1)c1cccc(OCCO)c1)c1cc(C(=O)OC)ccc1OC	top end
CC(=O)NCCCC[C@@H]1NC(=O)[C@@H]2C[C@H](C(=O)NCCCCCNC(=O)CS)[C@H](c3ccc(O)cc3)N2C1=O	bottom end

Would you mind sorting C=CCC(OC(C)=O)[C@@H]1[C@@H](N(Cc2cccc3ccccc23)C(=O)c2ccc(C)cc2)c2cc(OCCCO)ccc2N1C(=O)c1ccc(-c2ccccc2)cc1 (stereo not given in full) into the appropriate category?
midrange

Would you mind sorting C=CCC(OC(C)=O)[C@@H]1[C@@H](N(Cc2cc3ccccc3o2)C(=O)Cc2ccc(F)cc2)c2cc(OCCCO)ccc2N1C(=O)c1ccc(-c2ccccc2)cc1 (stereo not given in full) into the appropriate category?
bottom end

Would you mind sorting "C[C@H]1COC(=O)[C@@H]2CCCN2C(=O)[C@@H](C)COC(=O)[C@@H]2CCCN2C1=O" into the appropriate category?
midrange
